assay: Stability in mouse plasma assessed as level of lactone form of compound after 2 hrs by HPLC; assay type: ADME, cell-free; conditions: read-out: Activity
OBSERVATION_TYPE: remaining at 2 h (%)
Give the value, in units of %, as a plain number.

CHEMICAL_STRING: CC[C@@]1(OC(=O)CNC(=O)C2=CC(C)(C)N(O)C2(C)C)C(=O)OCc2c1cc1n(c2=O)Cc2cc3ccccc3nc2-1
remaining at 2 h / %: 76.3

Look up and report measured remaining at 2 h for this entry: CC[C@@]1(O)C(=O)OCc2c1cc1n(c2=O)Cc2cc3ccccc3nc2-1
55.1

* * *

experiment: Stability in human plasma assessed as level of lactone form of compound after 6 hrs by HPLC; format: ADME, cell-free; conditions: read-out: Activity
OBSERVATION_TYPE: remaining at 6 h (%)
Give the value, in units of %, as a plain number.

COMPOUND: CC[C@@]1(OC(=O)CNC(=O)C2=CC(C)(C)N(O)C2(C)C)C(=O)OCc2c1cc1n(c2=O)Cc2cc3ccccc3nc2-1
VALUE_UNITS: %
remaining at 6 h: 56.1

Look up and report measured remaining at 6 h for this entry: CC[C@@]1(O)C(=O)OCc2c1cc1n(c2=O)Cc2cc3ccccc3nc2-1 [CAMPTOTHECIN]
19.4

* * *

test: Stability in mouse plasma assessed as level of lactone form of compound after 4 hrs by HPLC; assay type: ADME, cell-free; settings: read-out: Activity
OBSERVATION_TYPE: remaining at 4 h

CHEMICAL_STRING: CC[C@@]1(O)C(=O)OCc2c1cc1n(c2=O)Cc2cc3ccccc3nc2-1
OBSERVATION_TYPE: remaining at 4 h
RESULT: 40.5%

Look up and report measured remaining at 4 h for this entry: CC[C@@]1(OC(=O)CNC(=O)C2=CC(C)(C)N(O)C2(C)C)C(=O)OCc2c1cc1n(c2=O)Cc2cc3ccccc3nc2-1
57.6%

* * *

assay: Stability in mouse plasma assessed as level of lactone form of compound after 8 hrs by HPLC; assay type: ADME, cell-free; conditions: read-out: Activity
Here, each record is paired with measured remaining at 8 h data.
Give the value, in units of %, as a plain number.

COMPOUND: CC[C@@]1(O)C(=O)OCc2c1cc1n(c2=O)Cc2cc3ccccc3nc2-1 [CAMPTOTHECIN]
remaining at 8 h, %: 10.9

Look up and report measured remaining at 8 h for this entry: CC[C@@]1(OC(=O)CNC(=O)C2=CC(C)(C)N(O)C2(C)C)C(=O)OCc2c1cc1n(c2=O)Cc2cc3ccccc3nc2-1
31.8

* * *

experiment: Stability in human plasma assessed as level of lactone form of compound after 2 hrs by HPLC; format: ADME, cell-free; settings: read-out: Activity
OBSERVATION_TYPE: remaining at 2 h (%)
Give the value, in units of %, as a plain number.

CHEMICAL_STRING: CC[C@@]1(O)C(=O)OCc2c1cc1n(c2=O)Cc2cc3ccccc3nc2-1
remaining at 2 h [%]: 61.4

Look up and report measured remaining at 2 h for this entry: CC[C@@]1(OC(=O)CNC(=O)C2=CC(C)(C)N(O)C2(C)C)C(=O)OCc2c1cc1n(c2=O)Cc2cc3ccccc3nc2-1
78.7

* * *

Here, each record is paired with measured remaining at 6 h data.
assay: Stability in mouse plasma assessed as level of lactone form of compound after 6 hrs by HPLC; assay type: ADME, cell-free; conditions: read-out: Activity
Give the value, in units of %, as a plain number.

CHEMICAL_STRING: CC[C@@]1(O)C(=O)OCc2c1cc1n(c2=O)Cc2cc3ccccc3nc2-1
VALUE_UNITS: %
remaining at 6 h: 24.5

Please find the next molecule below.
Look up and report measured remaining at 6 h for this entry: CC[C@@]1(OC(=O)CNC(=O)C2=CC(C)(C)N(O)C2(C)C)C(=O)OCc2c1cc1n(c2=O)Cc2cc3ccccc3nc2-1
43.9

Attribution: ChEMBL document CHEMBL1154452
